Target: Tyrosine-protein phosphatase non-receptor type 5 (Homo sapiens, UniProt P54829)
Sequence (P54829 whole entry): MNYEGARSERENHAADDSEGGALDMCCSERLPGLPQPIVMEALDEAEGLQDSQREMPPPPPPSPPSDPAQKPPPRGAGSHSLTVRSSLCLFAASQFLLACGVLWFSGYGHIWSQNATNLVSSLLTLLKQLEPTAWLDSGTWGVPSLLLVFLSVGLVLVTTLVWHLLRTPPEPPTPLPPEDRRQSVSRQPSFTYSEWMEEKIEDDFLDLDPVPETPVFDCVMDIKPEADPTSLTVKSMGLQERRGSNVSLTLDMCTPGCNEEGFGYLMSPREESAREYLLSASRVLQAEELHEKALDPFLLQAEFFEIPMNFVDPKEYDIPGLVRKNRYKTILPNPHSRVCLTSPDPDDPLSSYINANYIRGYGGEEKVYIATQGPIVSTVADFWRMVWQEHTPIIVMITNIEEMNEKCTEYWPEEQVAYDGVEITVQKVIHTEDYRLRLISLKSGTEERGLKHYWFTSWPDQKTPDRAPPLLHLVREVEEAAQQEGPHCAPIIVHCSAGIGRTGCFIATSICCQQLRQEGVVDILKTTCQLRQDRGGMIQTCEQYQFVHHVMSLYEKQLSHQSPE
Assay: STEP phosphatase inhibitor potency, dose response, orthogonal assay for STEP inhibitor project, biochemical, colorimetric absorbance (AID 624207)
Details: inactive by the depositor's call
Parameter: IC50 (µM)
Number only, in µM; omit the unit.

Worked cases, answers included:
{"columns": ["Compound", "IC50 / µM"],
 "data": [
  ["O=C(N/N=C/c1ccc(Br)cc1)c1ccc(Br)o1", 24.1],
  ["O=C(CCc1ccccc1)NNC(=O)c1ccc(NC(=O)c2ccccc2)cc1", 37.9]
]}

Exercise: Fill blank: measured IC50 of the compound OCCN1CCN(C(=S)c2ccc(Cl)c(Cl)c2)CC1 is ____.
Solution: 22

Exercise: Fill blank: measured IC50 of the compound CCOC(=O)N1CCC(N(CCN(C)C)C(=S)Nc2ccc(Oc3ccccc3)cc2)CC1 is ____.
Solution: 27

Exercise: Fill blank: measured IC50 of the compound CN(C)c1ccc(C(=S)N2CCN(Cc3ccccc3)CC2)cc1 is ____.
Solution: 56.9

Exercise: Fill blank: measured IC50 of the compound O=C(O)CCC(/N=N/c1ccc(S(=O)(=O)N2CCCC2)cc1[N+](=O)[O-])c1cccs1 (centres undefined) is ____.
Solution: 32.8

Exercise: Fill blank: measured IC50 of the compound O=S(=O)(Nc1ccc(Cl)cc1)c1ccc(N2CCOCC2)c(NC(=S)NCCN2CCOCC2)c1 is ____.
Solution: 21.3

Exercise: Fill blank: measured IC50 of the compound COc1ccccc1NS(=O)(=O)c1cc(NC(=S)NCCN2CCOCC2)ccc1N1CCOCC1 is ____.
Solution: 29.7

Exercise: Fill blank: measured IC50 of the compound OCCN1CCN(C(=S)c2ccc(Br)cc2)CC1 is ____.
Solution: 57

Where do these numbers come from? They come from BindingDB's records for doi:10.7270/Q2KH0KWR.
